Sourced from patent US20100010057A1

System: THP-1 cells
procedure summary: LPS-stimulation of THP-1 cells, TNF-α release
Assay type: cell-based
applied conditions: Homo sapiens, LPS 1 μg/ml, 6 h, TNF-α by ELISA, IC50 range, read-out: Inhibitor activity versus THP-1 TNFα release
pIC50: −log10 of the molar value.
property measured: pIC50

As a guide, the following entries are already answered.
- molecule: "Cc1nc(NCC2CCC(N[C@@H](CC(C)C)C(=O)OC3CCCC3)CC2)sc1-c1ccc(Cl)c(S(C)(=O)=O)c1 (stereo partly shown)"
  pIC50: "< 6.00"
- molecule: "Cc1nc(NC(=O)CCN[C@@H](C)C(=O)OC2CCCC2)sc1-c1ccc(Cl)c(S(C)(=O)=O)c1"
  pIC50: "6.00 to 7.00"
- molecule: "Cc1nc(NC(=O)CCCN[C@@H](CC(C)C)C(=O)OC2CCCC2)sc1-c1ccc(Cl)c(S(C)(=O)=O)c1"
  pIC50: "6.00 to 7.00"

// next entry
Name the recorded pIC50 of the molecule listed here: Cc1nc(NC(=O)CCCN[C@@H](COP(=O)(O)O)C(=O)OC2CCCC2)sc1-c1ccc(Cl)c(S(C)(=O)=O)c1
< 6.00

----------
System: THP-1 cells
procedure summary: LPS-stimulation of THP-1 cells, TNF-α release
Type: cell-based
applied conditions: Homo sapiens, LPS 1 μg/ml, 6 h, TNF-α by ELISA, IC50 range, read-out: Inhibitor activity versus THP-1 TNFα release
property measured: IC50

As a guide, the following entries are already answered.
- compound: "Cc1nc(NC(=O)CCCN[C@@H](Cc2ccccc2)C(=O)OC2CCCC2)sc1-c1ccc(Cl)c(S(C)(=O)=O)c1 [Example 11]"
  target entity: "THP-1 cells"
  IC50: "> 1000 nM"
- compound: "Cc1nc(NC(=O)CCCN[C@@H](C(=O)OC2CCCC2)c2ccccc2)sc1-c1ccc(Cl)c(S(C)(=O)=O)c1 [Example 9]"
  target entity: "THP-1 cells"
  IC50: "> 1000 nM"
- compound: "Cc1nc(NC(=O)CCCN[C@@H](CO)C(=O)OC2CCCC2)sc1-c1ccc(Cl)c(S(C)(=O)=O)c1 [Example 24]"
  target entity: "THP-1 cells"
  IC50: "< 100 nM"
- compound: "CC(=O)Nc1nc(C)c(-c2ccc(Cl)c(S(=O)(=O)N[C@@H](COC(C)(C)C)C(=O)OC3CCCC3)c2)s1 [Example 21]"
  target entity: "THP-1 cells"
  IC50: "> 1000 nM"
- compound: "Cc1nc(NC(=O)CCCN[C@@H](C)C(=O)OC2CCCC2)sc1-c1ccc(Cl)c(S(C)(=O)=O)c1 [Example 7]"
  target entity: "THP-1 cells"
  IC50: "100 to 1000 nM"

Name the recorded IC50 of the compound listed here: Cc1nc(NC(=O)N[C@@H](CO)C(=O)OC2CCCC2)sc1-c1ccc(Cl)c(S(C)(=O)=O)c1 [Example 23]
> 1000 nM

Name the recorded IC50 of the compound listed here: CC(=O)Nc1nc(C)c(-c2ccc(Cl)c(S(=O)(=O)N[C@@H](CO)C(=O)OC3CCCC3)c2)s1 [Example 25]
> 1000 nM

----------
Tested on: THP-1 cells
procedure summary: LPS-stimulation of THP-1 cells, TNF-α release
Format: cell-based
applied conditions: Homo sapiens, LPS 1 μg/ml, 6 h, TNF-α by ELISA, IC50 range, read-out: Inhibitor activity versus THP-1 TNFα release
property measured: IC50

- compound: "CC(=O)Nc1nc(C)c(-c2ccc(Cl)c(S(=O)(=O)NCCN[C@@H](CC(C)C)C(=O)OC3CCCC3)c2)s1"
  IC50: "> 1 µM"
- compound: "Cc1nc(NC(=O)CCCN[C@@H](COC(C)(C)C)C(=O)OC(C)(C)C)sc1-c1ccc(Cl)c(S(C)(=O)=O)c1"
  IC50: "> 1 µM"

// next entry
Name the recorded IC50 of the compound listed here: Cc1nc(NCC2CCC(N[C@@H](CC(C)C)C(=O)OC(C)(C)C)CC2)sc1-c1ccc(Cl)c(S(C)(=O)=O)c1 (stereo partly drawn)
> 1 µM
